Molecular target: Bromodomain-containing protein 9 (Homo sapiens)
Sequence (Q9H8M2 whole entry, the tested form may be a part): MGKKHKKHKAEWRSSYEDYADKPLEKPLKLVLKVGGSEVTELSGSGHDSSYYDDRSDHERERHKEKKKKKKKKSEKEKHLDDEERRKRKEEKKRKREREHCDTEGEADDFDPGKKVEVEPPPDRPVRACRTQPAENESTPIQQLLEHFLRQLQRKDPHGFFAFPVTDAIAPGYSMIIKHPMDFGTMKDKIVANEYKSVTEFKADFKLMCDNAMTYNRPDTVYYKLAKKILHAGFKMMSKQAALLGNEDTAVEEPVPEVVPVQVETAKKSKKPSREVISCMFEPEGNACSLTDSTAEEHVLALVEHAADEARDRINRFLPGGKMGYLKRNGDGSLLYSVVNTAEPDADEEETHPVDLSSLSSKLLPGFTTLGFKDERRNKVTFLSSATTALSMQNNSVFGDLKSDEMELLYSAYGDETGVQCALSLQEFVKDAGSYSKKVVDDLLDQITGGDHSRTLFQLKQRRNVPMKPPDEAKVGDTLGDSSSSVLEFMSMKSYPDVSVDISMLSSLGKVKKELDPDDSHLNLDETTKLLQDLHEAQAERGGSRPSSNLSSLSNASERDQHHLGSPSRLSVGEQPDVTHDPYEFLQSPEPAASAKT
Assay: Inhibition of biotinylated-H4KAc4 binding to human His6-tagged BRD9 (L14 to Q134 residues) expressed in Escherichia coli BL21(DE3) after 2.5 hrs by luminescence-based AlphaScreen assay
outcome.measure: IC50

Consider the reported IC50 for these molecules:
{"molecule": "CC(=O)n1cc(C(=O)Nc2cc(COC3CCCCO3)cc(C(=O)O)c2)c2ccccc21 (stereo not drawn)", "IC50": "> 20 µM"}
{"molecule": "COc1ccc2c(c1)c(C(=O)Nc1cc(C(=O)O)cc(-c3cnn(C)c3)c1)cn2C(C)=O", "IC50": "> 20 µM"}

Under Bromodomain-containing protein 9 (Homo sapiens): IC50 value of COc1ccc(CCc2nc3cc(-c4c(C)noc4C)ccc3n2C[C@H](C)N2CCOCC2)cc1Cl ?
> 20 µM

Another molecule to look at: CC(=O)n1cc(C(=O)Nc2cccc(C(=O)O)c2)c2ccccc21
> 20 µM

Another molecule to look at: COc1ccc2c(c1)c(C(=O)Nc1cc(C(=O)O)cc(-c3ccco3)c1)cn2C(C)=O
> 20 µM

Another molecule to look at: COc1ccc2c(c1)c(C(=O)Nc1cc(C(=O)O)cc(-c3cnn(C)c3)c1F)cn2C(C)=O
> 20 µM

Another molecule to look at: CC(=O)n1cc(C(=O)Nc2cc(C(=O)O)ccc2F)c2ccccc21
> 20 µM

Another molecule to look at: CC(=O)n1cc(C(=O)Nc2cc(C(=O)O)cc(-c3ccco3)c2)c2ccccc21
> 20 µM
